B1: SLC6A17 (parent)
chain: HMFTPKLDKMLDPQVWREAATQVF

# Variants of: B1
# test.summary: protein stability index of a GFP-peptide fusion (GPS, HEK-293T) (PSI 1-6); higher = more stable;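 note: lentivirally expressed fusions sorted by FACS into six bins by GFP to DsRed ratio, PSI derived from sequencing read proportions per bin multiplied by bin number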
# experimental.setup: c terminus: a fixed tail appended
Param threshold (2) applies to protein stability index; output t when value >= threshold, f when value < threshold.

(Q) Could you please find out whether HEFTPKLDKMLDPQVWREAATQVF [M2E] has protein stability index that meets 2 or exceeds it?
(A) t

(Q) Another variant: HMFIPKLDKMLDPQVWREAATQVF [T4I]
(A) f

(Q) Another variant: HWFTPKLDKMLDPQVWREAATQVF [M2W]
(A) f

(Q) Another variant: HMFTPKKDKMLDPQVWREAATQVF [L7K]
(A) t

(Q) Another variant: HMFTPKLDKMLDLQVWREAATQVF [P13L]
(A) f

(Q) Another variant: HMFTQKLDKMLDPQVWREAATQVF [P5Q]
(A) t

(Q) Another variant: HMFTPKLDKMLDPQSWREAATQVF [V15S]
(A) t

(Q) Another variant: HMITPKLDKMLDPQVWREAATQVF [F3I]
(A) t

(Q) Another variant: HMFTPKLDKMLDPQVWREAHTQVF [A20H]
(A) f

(Q) Another variant: HMSTPKLDKMLDPQVWREAATQVF [F3S]
(A) t

(Q) Another variant: HMFTPKLRKMLDPQVWREAATQVF [D8R]
(A) t

(Q) Another variant: HMFYPKLDKMLDPQVWREAATQVF [T4Y]
(A) t

(Q) Another variant: HRFTPKLDKMLDPQVWREAATQVF [M2R]
(A) t

(Q) Another variant: SMFTPKLDKMLDPQVWREAATQVF [H1S]
(A) t

(Q) Another variant: HMFTPKEDKMLDPQVWREAATQVF [L7E]
(A) t

(Q) Another variant: HMFTPKLDKMLDVQVWREAATQVF [P13V]
(A) t

(Q) Another variant: HMFTPKLDKMLDPQVWREAACQVF [T21C]
(A) f

(Q) Another variant: HMFTPKPDKMLDPQVWREAATQVF [L7P]
(A) t

(Q) Another variant: HPFTPKLDKMLDPQVWREAATQVF [M2P]
(A) t

(Q) Another variant: HMFTPKLDKMLDPQKWREAATQVF [V15K]
(A) t

(Q) Another variant: HMFHPKLDKMLDPQVWREAATQVF [T4H]
(A) f

(Q) Another variant: HMFTPKLDKMLDPQVNREAATQVF [W16N]
(A) t
